# Test Protocol: gradient 5% acetonitrile 3 min, to 50% in 2 min, to 85% in 15 min, held 3 min, 100 µL/min
# Reported Conditions: column: Zorbax Extend-C18 2.1 x 50 mm; eluents: water / acetonitrile, 0.1% formic acid
Experimental Endpoint: RP-LC retention time (s)

compound=Cc1cc(-c2nnc(-c3ccccc3)o2)c(C)n1CC(=O)Nc1ccc(F)c(F)c1 experimental_endpoint="RP-LC retention time" meas_value=1010
compound=CCN1CCN(c2cc(C)c3cc(NC(=S)NCCC(C)C)ccc3n2)CC1 experimental_endpoint="RP-LC retention time" meas_value=588
compound=COc1ccc2c(CCNC(=O)c3ccc(C(C)(C)C)cc3)c[nH]c2c1 experimental_endpoint="RP-LC retention time" meas_value=982
compound=CCOC(=O)c1nc(NCc2cccc(Cl)c2)c2ccccc2n1 experimental_endpoint="RP-LC retention time" meas_value=833
compound="Cc1ccnc(N2CCCC(C(=O)NCCSCc3ccco3)C2)n1 (centres undefined)" experimental_endpoint="RP-LC retention time" meas_value=709
compound="CCN(CC)CCCNC(=O)C1CCCN(c2nnc(C)c3c(C)n(-c4ccccc4)nc23)C1 (centres undefined)" experimental_endpoint="RP-LC retention time" meas_value=556
compound=CN(C)c1cnc(-n2cc(NC(=O)NCCc3ccccc3)cn2)nc1 experimental_endpoint="RP-LC retention time" meas_value=718
compound=CCOC(=O)N1CCN(c2cc(C(=O)O)c3cc(NC(=O)c4ccccc4OC)ccc3n2)CC1 experimental_endpoint="RP-LC retention time" meas_value=629
compound="COc1ccc(C(=O)Nc2nnc(C3CC(=O)N(c4ccc(Cl)cc4)C3)o2)cc1 (centres undefined)" experimental_endpoint="RP-LC retention time" meas_value=773

* * *

# Test Protocol: gradient 5% acetonitrile 3 min, to 50% in 2 min, to 85% in 15 min, held 3 min, 100 µL/min
# Reported Conditions: column: Zorbax Extend-C18 2.1 x 50 mm; eluents: water / acetonitrile, 0.1% formic acid
Experimental Endpoint: RP-LC retention time (s)

compound=Fc1ccc(Cn2cc(-c3noc(C4CCCC4)n3)nn2)cc1 meas_value=991

P. Cc1cc(C)n(-c2ccc(=O)n(CC(=O)N3CCN(c4ncccn4)CC3)n2)n1
Q. O=C(Nc1cccc(C(F)(F)F)c1)Nc1nc(-c2ccccc2)cs1
Q: // task: argmin of RP-LC retention time over [ P , Q ] Let me know the label of the one you choose.
Ans: P

* * *

# Test Protocol: gradient 5% acetonitrile 3 min, to 50% in 2 min, to 85% in 15 min, held 3 min, 100 µL/min
# Reported Conditions: column: Zorbax Extend-C18 2.1 x 50 mm; eluents: water / acetonitrile, 0.1% formic acid
Experimental Endpoint: RP-LC retention time (s)

compound=COc1cccc(C(=O)N2CCc3cc(-c4csc(C)n4)ccc32)c1 meas_value=988
compound=Cc1ccc(C)c(N2CCN(C(=O)c3nc4cccnc4n(C)c3=O)CC2)c1 meas_value=653
compound=CCc1nc(-c2cc(S(=O)(=O)N3CCC(C(=O)NCc4cccs4)CC3)c(C)s2)no1 meas_value=967
compound="Cc1cnc(CC2CCN(S(=O)(=O)c3ccccc3)C2)n1C(C)C (centres undefined)" meas_value=650
compound=O=C(Nc1ccc2c(c1)N(C(=O)c1cccs1)CC2)c1ccc2c(c1)OCO2 meas_value=843
compound=Cc1cccc(-c2noc(-c3cccnc3N3CCN(c4ccc5c(c4)OCO5)CC3)n2)c1 meas_value=766
compound="CCNC(=O)C1CCCN(c2nc3ncn(CC(=O)Nc4ccc5c(c4)CCC5)c(=O)c3s2)C1 (centres undefined)" meas_value=717
compound=COc1ccccc1C(=O)Nc1cccn2ncnc12 meas_value=803
compound=CSc1cccc(NC(=O)Nc2cccc(-c3ccc(N4CCCC4)nn3)c2)c1 meas_value=712

* * *

# Test Protocol: gradient 5% acetonitrile 3 min, to 50% in 2 min, to 85% in 15 min, held 3 min, 100 µL/min
# Reported Conditions: column: Zorbax Extend-C18 2.1 x 50 mm; eluents: water / acetonitrile, 0.1% formic acid
Experimental Endpoint: RP-LC retention time (s)

molecule="CCS(=O)(=O)N1CC(=O)N(c2ccc(Cl)cc2C)C(C)(C(=O)NC2CCCCC2)C1 (stereo not given)" meas_value=946

a. O=C1CCN(C(=O)C2CCN(C(=O)C3CC3)CC2)CCCCCCN1
b. COc1cccc(N2CCN(Cc3nc(-c4ccc(N5CCCCC5)nc4)no3)CC2)c1
Q: Hey, between a and b which has a smaller measured RP-LC retention time? // caller expects the label of the chosen entry
Ans: a

A. COC(=O)Cn1c2ccc(F)cc2c2nc3ccccc3nc21
B. Cc1oc(-c2ccccc2)nc1Cn1ccn2nc(-c3cccs3)cc2c1=O
Q: Lab note: check whether A or B shows the higher recorded RP-LC retention time. Kindly state the label of the option you pick.
Ans: B
(B: 1060 s, A: 658 s)

* * *

# Test Protocol: gradient 5% acetonitrile 3 min, to 50% in 2 min, to 85% in 15 min, held 3 min, 100 µL/min
# Reported Conditions: column: Zorbax Extend-C18 2.1 x 50 mm; eluents: water / acetonitrile, 0.1% formic acid
Experimental Endpoint: RP-LC retention time (s)

Would you please look over these solved cases?
compound="CCC(C)C(NC(=O)Cc1ccccc1Cl)C(=O)Nc1nc2ccccc2[nH]1 (stereo not given)" experimental_endpoint="RP-LC retention time" readout_units=s meas_value=776
compound=Cc1ccccc1NC(=O)N1CCC(CCN)CC1 experimental_endpoint="RP-LC retention time" readout_units=s meas_value=580
compound=CC(=O)Nc1cc(C(=O)NCc2ccccc2C)c2ccc(C)nc2c1 experimental_endpoint="RP-LC retention time" readout_units=s meas_value=610
compound=O=C(N1CCC(Cc2nc(-c3ccc(F)cc3)no2)CC1)C1(c2ccccc2)CC1 experimental_endpoint="RP-LC retention time" readout_units=s meas_value=1020
compound="CCCC(N[C@@H](C)C(=O)N1[C@H](C(=O)O)C[C@@H]2CCCC[C@@H]21)C(=O)OCC (stereo not given in full)" experimental_endpoint="RP-LC retention time" readout_units=s meas_value=703

a. CCOc1ccc(-c2nc3ncccn3c2NC2CCCCC2)cc1
b. COc1ccc(NC(=O)c2noc3c2CC(C)CC3)c(OC)c1 (stereo not given)
c. Cc1nc([C@@H]2CN(C(=O)CCc3nc4ccccc4[nH]3)C[C@H]2C(N)=O)n[nH]1
Q: Ascending by RP-LC retention time, please: list the compounds accordingly. Please express your ranking as an ordered list of the labels.
Ans: c, a, b
(c: 506 s, a: 808 s, b: 1170 s)

* * *

# Test Protocol: gradient 5% acetonitrile 3 min, to 50% in 2 min, to 85% in 15 min, held 3 min, 100 µL/min
# Reported Conditions: column: Zorbax Extend-C18 2.1 x 50 mm; eluents: water / acetonitrile, 0.1% formic acid
Experimental Endpoint: RP-LC retention time (s)

Reference set, count: 3
item_smiles=CCn1cc(S(=O)(=O)NCc2ccccc2F)c2cccnc21 meas_value=799
item_smiles=CC(C)NC(=O)c1nc2ccccn2c1-c1ccc(Cl)cc1 meas_value=846
item_smiles=O=C(NCCc1c[nH]c2ccccc12)C1CCN(c2ncnc3c2oc2ccccc23)CC1 meas_value=722

P. CCOC(=O)c1noc2nc(C)nc(NCC3CCN(Cc4ccc(F)cc4)CC3)c12
Q. Fc1ccc(-n2cc(-c3noc(-c4nccc5ccccc45)n3)nn2)cc1
Q: Compare P and Q and name the one whose reported RP-LC retention time is smaller. Answer by quoting the chosen item's label.
Ans: P

* * *

# Test Protocol: gradient 5% acetonitrile 3 min, to 50% in 2 min, to 85% in 15 min, held 3 min, 100 µL/min
# Reported Conditions: column: Zorbax Extend-C18 2.1 x 50 mm; eluents: water / acetonitrile, 0.1% formic acid
Experimental Endpoint: RP-LC retention time (s)

compound=COc1ccc(-n2cc(C(=O)NCCc3c[nH]c4ccc(F)cc34)nn2)cc1 experimental_endpoint="RP-LC retention time" meas_value=871
compound="N#Cc1ccc(C(=O)N2CCCC2c2nc(-c3cccc(C(F)(F)F)c3)no2)c(F)c1 (centres undefined)" experimental_endpoint="RP-LC retention time" meas_value=1060
compound=Cc1ccc(N2CCN(C(=O)c3cn(-c4cc(N5CCSCC5)ncn4)cn3)CC2)cc1 experimental_endpoint="RP-LC retention time" meas_value=916
compound=CCC(=Cc1ccc(CC)cn1)CC experimental_endpoint="RP-LC retention time" meas_value=686
compound=CNC(=O)c1sc2nc(-c3ccc(OC)cc3)c(NC(C)(C)C)n2c1C experimental_endpoint="RP-LC retention time" meas_value=737
compound="C1CCC(C(CC2CCCCN2)C2CCCCC2)CC1 (centres undefined)" experimental_endpoint="RP-LC retention time" meas_value=1060

1. Cc1cc(N2CCN(C(=O)c3ccc(C#N)cc3)CC2)nc2nnc(C)n12
2. CCCN1C(=O)CCc2cc(NS(=O)(=O)c3ccccc3C(=O)OC)ccc21
3. Cc1cccc(-c2noc(-c3nn(CC(=O)NC4CCCCC4)c4ccccc34)n2)c1
Q: Order the entries by their reported RP-LC retention time, beginning at the minimum. Put the labels in the requested order and list them out.
Ans: 1, 2, 3
(1: 582 s, 2: 845 s, 3: 1250 s)

a. COc1ccc(NC(=O)c2cn(-c3cc(N(C)C)ncn3)cn2)cc1OC
b. CCOC(=O)c1cc(S(=O)(=O)N2CCCC2C(=O)Nc2cc(Cl)c(OC)cc2OC)cn1C (centres undefined)
Q: // pick min by RP-LC retention time: a , b Please identify the chosen entry by its label.
Ans: a

Measured values drawn from the METLIN SMRT retention time set (Domingo-Almenara et al. 2019) for this set.
